# measurementTarget: T1, human PD-1 extracellular domain fused with mouse Fc (PD-1-mFc) (human, UniProt Q15116 25-170)
# T1 construct: extracellular domain; not used because of the label; also called hPD-1-mFc; human PD-1-mouse Fc fusion protein
# T1 sequence (Q15116 25-170): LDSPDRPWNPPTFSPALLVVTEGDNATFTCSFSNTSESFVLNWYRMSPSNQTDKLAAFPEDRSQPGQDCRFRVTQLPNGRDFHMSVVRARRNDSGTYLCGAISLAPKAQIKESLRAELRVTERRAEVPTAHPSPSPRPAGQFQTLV
# assayNotes: blockage ELISA, competitor PDL-1-mFc-biotin (summary table; IC50 in ng/ml in Table 2)
readout: IC50 (µg/mL)
Respond numerically; units are µg/mL and should not be typed.

binder	valueObserved
22A5 murine anti-PD-1 antibody (antibody, V domains shown, Purified hybridoma antibody; also called 22A5-mIgG1) VH: EVKLVESGGGLVKPGGSLKLSCSASGFSFSYYDMSWVRQTPEKGLEWVATISGGGRNTYFIDSVKGRFTISRDNVKNNLYLLMSSLRSEDTALYYCASPYEGAVDFWGQGTSVTVSS VL: DIVMTQSHKVMSTSVGDRVSITCKASQDVDNAVAWYQQNPGQSPKLLIKWASTRHHGVPDRFTGSGSGTDFTLTISTVQSEDLADFFCQQYSTFPYTFGGGTKLEIKR	1.11

Which IC50 value is on record for 7A4 murine anti-PD-1 antibody (antibody, V domains shown, Purified hybridoma antibody; also called 7A4-mIgG1) VH: QIHLVQSGPELKKPGETVKISCKASGYTFTNFGMNWVKQAPGKGLKWMGWISGYTREPTYAADFKGRFAISLETSASTAYLQINDLKNEDMATYFCARDVFDYWGQGTTLTVSS VL: DIVLTQSPASLAVSLGQRATISCRASESVDNYGYSFMNWFQQKPGQPPKLLIYRASNLESGIPARFSGSGSRTNFTLTINPVEADDVATYFCQQSNADPTFGGGTNLEIKR ?
0.699
